assay-comment: Inhibition of Aspergillus oryzae alpha-amylase in presence of 1% starch incubated for 10 mins
reported-endpoint: IC50 (µg/mL)

Here is how some compounds turned out for IC50.
1) Cc1cccc2sc(-n3nc(-c4cccc(Cl)c4)c4c3-c3ccccc3C4=O)nc12
171.2
2) COc1cccc(-c2nn(-c3nc4c(C)cccc4s3)c3c2C(=O)c2ccccc2-3)c1
200.95
3) O=C1c2ccccc2-c2c1c(-c1ccc(Cl)cc1)nn2-c1nc2ccc(F)cc2s1
189.69
4) C[C@H]1O[C@H](O[C@H]2[C@H](O)[C@@H](O)[C@@H](O[C@H]3[C@H](O)[C@@H](O)C(O)O[C@@H]3CO)O[C@@H]2CO)[C@H](O)[C@@H](O)[C@@H]1N[C@H]1C=C(CO)[C@@H](O)[C@H](O)[C@H]1O (some centres not stated) [ACARBOSE]
103.6
5) Cc1cccc2sc(-n3nc(-c4ccc(F)cc4)c4c3-c3ccccc3C4=O)nc12
159.95

[a] COc1ccc(-c2nn(-c3nc4ccc(F)cc4s3)c3c2C(=O)c2ccccc2-3)cc1
[b] COc1cccc(-c2nn(-c3nc4ccc(F)cc4s3)c3c2C(=O)c2ccccc2-3)c1
## Input From the recorded data, which exceeds the other in IC50: a or b ? Indicate which entry you chose by stating its label.
## Output b
